Examples of molecules with documented Selectivity for BuChE follow.
# study target: BuChE (Equus caballus, UniProt P81908)
# Construct: electric eel, and horse serum were used as source of AChE and BuChE, respectively; from tissue; host or cells: horse serum
# Sequence (P81908 whole entry): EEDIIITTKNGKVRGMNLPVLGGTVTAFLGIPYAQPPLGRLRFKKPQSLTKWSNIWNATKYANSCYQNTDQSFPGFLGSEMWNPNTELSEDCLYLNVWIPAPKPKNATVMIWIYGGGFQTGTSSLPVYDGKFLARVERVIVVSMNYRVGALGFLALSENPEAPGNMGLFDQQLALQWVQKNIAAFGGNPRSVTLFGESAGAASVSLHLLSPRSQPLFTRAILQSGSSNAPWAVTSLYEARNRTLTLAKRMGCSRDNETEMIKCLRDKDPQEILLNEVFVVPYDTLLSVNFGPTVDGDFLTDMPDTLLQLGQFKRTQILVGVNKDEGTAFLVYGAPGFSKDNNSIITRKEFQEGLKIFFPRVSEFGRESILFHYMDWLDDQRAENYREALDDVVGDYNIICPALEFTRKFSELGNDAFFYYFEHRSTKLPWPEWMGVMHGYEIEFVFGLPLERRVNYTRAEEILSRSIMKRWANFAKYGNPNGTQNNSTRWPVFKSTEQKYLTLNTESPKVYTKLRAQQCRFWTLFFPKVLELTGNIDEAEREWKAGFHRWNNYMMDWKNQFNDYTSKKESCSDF
# test: biochemical
# Assay type: biochemical
# condition: ratio of IC50 values, AChE over BuChE
The answer should be written as a number, with no unit following it.

| molecule | Selectivity for BuChE |
| --- | --- |
| O=c1oc2ccccc2cc1-c1nn(CN2CCOCC2)c(=S)o1 [Compound 11h] | 0.91 |
| O=c1oc2ccccc2cc1-c1nn(CN(c2ccccc2)c2ccccc2)c(=S)o1 [Compound 11g] | 2.10 |
| CC(=NNc1nc(-c2cc3ccccc3oc2=O)cs1)c1cccc(N)c1 | 0.027 |
| C/C(=N\Nc1nc(-c2cc3ccccc3oc2=O)cs1)c1ccccc1F | 0.71 |
| C/C(=N\Nc1nc(-c2cc3ccccc3oc2=O)cs1)c1ccc(Cl)cc1N | 0.61 |

Item CNCn1nc(-c2cc3ccccc3oc2=O)oc1=S [Compound 11a] with BuChE (Equus caballus, UniProt P81908) - Selectivity for BuChE?
17.8

Next record, please: `O=c1oc2ccccc2cc1-c1csc(NN=C(c2ccccc2)c2ccccc2)n1`
0.51

Note, next up: `COc1ccc(C(C)=NNc2nc(-c3cc4ccccc4oc3=O)cs2)cc1`
0.055

// query: `C/C(=N\Nc1nc(-c2cc3ccccc3oc2=O)cs1)c1ccccc1Br`
1.09

====

# study target: BuChE (Equus caballus)
# Construct: electric eel, and horse serum were used as source of AChE and BuChE, respectively; from tissue; host or cells: horse serum
# test: biochemical
# Assay type: biochemical
# condition: ratio of IC50 values, AChE over BuChE
For each record, check the reported Selectivity for BuChE: if it is below 2 write Criterion met, else write Criterion not met.

Reference set, count: 3
| compound | discrete label |
| --- | --- |
| CN(C)C(=O)Oc1cccc([N+](C)(C)C)c1 [Neostigmine, reference compound] | Criterion met |
| COc1ccc(/C(C)=N/Nc2nc(-c3cc4ccccc4oc3=O)cs2)cc1F | Criterion met |
| O=c1oc2ccccc2cc1-c1nn(CNc2cccc(Cl)c2)c(=S)o1 [Compound 11e] | Criterion not met |

Here's an entry: `C/C(=N\Nc1nc(-c2cc3ccccc3oc2=O)cs1)c1cc2ccccc2oc1=O` . Is its Selectivity for BuChE below 2?
Criterion met

And then `COc1cc(C(C)=NNc2nc(-c3cc4ccccc4oc3=O)cs2)ccc1O` , what is it?
Criterion met

Repeat for the following compound: O=c1oc2ccccc2cc1-c1nn(CNc2ccc(Cl)cc2)c(=S)o1 [Compound 11f]
Criterion met

====

# study target: BuChE (Equus caballus, UniProt P81908)
# Construct: electric eel, and horse serum were used as source of AChE and BuChE, respectively; from tissue; host or cells: horse serum
# test: biochemical
# Format: biochemical
# condition: ratio of IC50 values, AChE over BuChE
In this section, each of the compounds is paired with its reported Selectivity for BuChE.
Answer with the value's number alone.

| compound | study target | data value |
| --- | --- | --- |
| C/C(=N\Nc1nc(-c2cc3ccccc3oc2=O)cs1)c1cccc(Br)c1 | BuChE (Equus caballus, UniProt P81908) | 1.98 |
| C/C(=N\Nc1nc(-c2cc3ccccc3oc2=O)cs1)c1ccccc1 | BuChE (Equus caballus, UniProt P81908) | 0.51 |
| O=c1oc2ccccc2cc1-c1nn(CNc2ccccc2Cl)c(=S)o1 [Compound 11d] | BuChE (Equus caballus, UniProt P81908) | 4.77 |
| CCCCNCn1nc(-c2cc3ccccc3oc2=O)oc1=S [Compound 11b] | BuChE (Equus caballus, UniProt P81908) | 12.2 |
| COc1ccc(/C(C)=N/Nc2nc(-c3cc4ccccc4oc3=O)cs2)c(O)c1 | BuChE (Equus caballus, UniProt P81908) | 0.81 |

Would you mind telling me what Selectivity for BuChE value was observed for `C/C(=N\Nc1nc(-c2cc3ccccc3oc2=O)cs1)c1ccc(Br)cc1` ?
0.68

What do we get for Cc1ccc(NCn2nc(-c3cc4ccccc4oc3=O)oc2=S)cc1 [Compound 11c] ?
2.97

What do we get for `COc1ccc(/C(C)=N/Nc2nc(-c3cc4ccccc4oc3=O)cs2)cc1I` ?
0.42

Next up: `C/C(=N\Nc1nc(-c2cc3ccccc3oc2=O)cs1)c1ccc(F)cc1`
1.29
